These entries and their values trace back to paper PMC11249646.

EXPERIMENTAL_TARGET: CIB1 and αIIb interaction (CIB1-GST : F-αIIb peptide) (Homo sapiens)
Construct: made in house; host or cells: BL-21 plus RIL cells (E. coli)
Sequence (Q99828 whole entry): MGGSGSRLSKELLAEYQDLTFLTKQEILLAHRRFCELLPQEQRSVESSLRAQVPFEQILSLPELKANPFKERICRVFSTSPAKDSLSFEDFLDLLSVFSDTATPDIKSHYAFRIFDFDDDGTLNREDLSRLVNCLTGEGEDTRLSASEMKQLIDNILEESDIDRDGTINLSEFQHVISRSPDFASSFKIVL
PROTOCOL: FP assay, 1536-well qHTS format (primary and confirmatory screen)
Type: binding
REPORTED_CONDITIONS: qHTS primary screen of LOPAC/NPACT libraries; negative sign = inhibitory curve
# Curve Class per entry
MEASURE_NAME: Curve Class

{"COMPOUND": "O=C(c1cc(O)c(O)c([N+](=O)[O-])c1)c1ccccc1F [NCGC00015881-04]", "MEASURE_NAME": "Curve Class", "EXPERIMENTAL_RESULT": -2.2}
{"COMPOUND": "CCOc1cc(C(=O)N2CCC(N3CCN(C)CC3)CC2)ccc1Nc1ncc2c(n1)N(C1CCCC1)c1ccccc1C(=O)N2C [NCGC00378965-03]", "MEASURE_NAME": "Curve Class", "EXPERIMENTAL_RESULT": -2.4}
{"COMPOUND": "Clc1ccccc1C(c1ccccc1)(c1ccccc1)n1ccnc1 [NCGC00015251-09]", "MEASURE_NAME": "Curve Class", "EXPERIMENTAL_RESULT": -2.4}
{"COMPOUND": "C=C1CC2OC(=O)C(=C)C2C(OC(=O)/C(C)=C\\C)CC2(C)OC1=CC2=O (stereo not drawn) [NCGC00384607-01]", "MEASURE_NAME": "Curve Class", "EXPERIMENTAL_RESULT": -1.4}
{"COMPOUND": "O=C1NC(=O)/C(=C/c2ccc3nccnc3c2)S1 [NCGC00261632-01]", "MEASURE_NAME": "Curve Class", "EXPERIMENTAL_RESULT": -1.2}
{"COMPOUND": "CCCCCCC/C=C\\CCCCCCCCC(=O)O [NCGC00015764-04]", "MEASURE_NAME": "Curve Class", "EXPERIMENTAL_RESULT": -2.4}
{"COMPOUND": "CCCc1n[nH]c2c1C(c1cc(Cl)cc(Cl)c1O)C(C#N)=C(N)O2 (stereo not drawn) [NCGC00402340-02]", "MEASURE_NAME": "Curve Class", "EXPERIMENTAL_RESULT": -2.4}
{"COMPOUND": "C/C(=C\\c1ccc(C(=O)O)cc1)c1ccc2c(c1)C(C)(C)CCC2(C)C [NCGC00016015-10]", "MEASURE_NAME": "Curve Class", "EXPERIMENTAL_RESULT": -1.4}
{"COMPOUND": "COc1cc(Nc2ccc([N+](=O)[O-])cc2C(=O)O)cc2ccccc12 [NCGC00402240-03]", "MEASURE_NAME": "Curve Class", "EXPERIMENTAL_RESULT": -2.4}
{"COMPOUND": "O=C(O)c1cc(O)c2cccc(O)c2c1O[C@@H]1O[C@H](CO)[C@@H](O)[C@H](O)[C@H]1O [NCGC00385595-01]", "MEASURE_NAME": "Curve Class", "EXPERIMENTAL_RESULT": -2.4}
{"COMPOUND": "O=[N+]([O-])c1cccc2c(Br)n[nH]c12 [NCGC00015143-10]", "MEASURE_NAME": "Curve Class", "EXPERIMENTAL_RESULT": -2.4}
{"COMPOUND": "COc1ccc(S(=O)(=O)Nc2nc(-c3cccc([N+](=O)[O-])c3)cs2)cc1OC [NCGC00370730-07]", "MEASURE_NAME": "Curve Class", "EXPERIMENTAL_RESULT": -1.4}
{"COMPOUND": "Cc1ccccc1NC(=O)Nc1ccc(CN2C(=O)N([C@@H](CC(C)C)C(=O)N[C@@H](CC(=O)O)c3ccccc3)C(=O)C2(C)C)cc1 [NCGC00386592-01]", "MEASURE_NAME": "Curve Class", "EXPERIMENTAL_RESULT": -2.4}
{"COMPOUND": "C/C=C/C=C/c1cc2c(C=O)c(O)c(CC=C(C)C)cc2o1 [NCGC00386103-01]", "MEASURE_NAME": "Curve Class", "EXPERIMENTAL_RESULT": -2.4}
{"COMPOUND": "O=C1Nc2ccccc2/C1=C1/Nc2ccccc2/C1=N\\O [NCGC00015545-07]", "MEASURE_NAME": "Curve Class", "EXPERIMENTAL_RESULT": -1.2}
{"COMPOUND": "C=C1C(=O)O[C@@H]2C3=C(C)CCC[C@]3(C)CC[C@@]12O [NCGC00385722-01]", "MEASURE_NAME": "Curve Class", "EXPERIMENTAL_RESULT": -2.4}
{"COMPOUND": "CC1(C)CCC(CN2CCN(c3ccc(C(=O)NS(=O)(=O)c4ccc(NCC5CCOCC5)c([N+](=O)[O-])c4)c(Oc4cnc5[nH]ccc5c4)c3)CC2)=C(c2ccc(Cl)cc2)C1 [NCGC00345789-10]", "MEASURE_NAME": "Curve Class", "EXPERIMENTAL_RESULT": -2.4}
{"COMPOUND": "COc1ccc(Cl)cc1C(=O)NCCc1ccc(S(=O)(=O)NC(=O)NC2CCCCC2)cc1 [NCGC00015467-16]", "MEASURE_NAME": "Curve Class", "EXPERIMENTAL_RESULT": -2.4}
{"COMPOUND": "COc1ccnc(C[S+]([O-])c2nc3cc(OC(F)F)ccc3[nH]2)c1OC (stereo not drawn) [NCGC00388526-02]", "MEASURE_NAME": "Curve Class", "EXPERIMENTAL_RESULT": -2.4}
{"COMPOUND": "CN1CCC2(CCN3CCc4c(oc5ccccc45)C3C2)N(C)C1=O.Cl (stereo not drawn) [NCGC00015699-03]", "MEASURE_NAME": "Curve Class", "EXPERIMENTAL_RESULT": -1.4}
{"COMPOUND": "C=C1CCC2C(C)(C)CC(O)CC2(C)C1CCC(C)CCOC(=O)CCC(=O)O (stereo not drawn) [NCGC00380160-01]", "MEASURE_NAME": "Curve Class", "EXPERIMENTAL_RESULT": -2.4}
{"COMPOUND": "O=C(O)/C=C/c1ccc(-c2ccc(O)c(C34CC5CC(CC(C5)C3)C4)c2)cc1 [NCGC00485908-01]", "MEASURE_NAME": "Curve Class", "EXPERIMENTAL_RESULT": -2.4}
{"COMPOUND": "N#C/C(=C\\c1ccc(O)c(O)c1)C(=O)NCCc1ccccc1 [NCGC00016029-05]", "MEASURE_NAME": "Curve Class", "EXPERIMENTAL_RESULT": -1.2}
{"COMPOUND": "CCCOc1ccccc1-c1nc(=O)c2nn[nH]c2[nH]1 [NCGC00016105-05]", "MEASURE_NAME": "Curve Class", "EXPERIMENTAL_RESULT": -1.4}
{"COMPOUND": "O=C(O)CCc1nc(-c2ccccc2)c(-c2ccccc2)o1 [NCGC00014711-11]", "MEASURE_NAME": "Curve Class", "EXPERIMENTAL_RESULT": -2.4}
{"COMPOUND": "COc1ccc2c(c1)C(=O)N(CCc1ccc(S(=O)(=O)NC(=O)NC3CCCCC3)cc1)C(=O)C2(C)C [NCGC00016819-06]", "MEASURE_NAME": "Curve Class", "EXPERIMENTAL_RESULT": -2.4}
{"COMPOUND": "Cc1ccc(-c2c(C(=O)CCl)n(CCCO)c3ncnc(N)c23)cc1 [NCGC00485901-01]", "MEASURE_NAME": "Curve Class", "EXPERIMENTAL_RESULT": -1.4}
{"COMPOUND": "C=CCc1ccccc1OCC(O)CN[C@]1(C)CCC[C@H](C(C)(C)NC(=O)CBr)C1 (stereo partly drawn) [NCGC00162095-02]", "MEASURE_NAME": "Curve Class", "EXPERIMENTAL_RESULT": -2.4}
{"COMPOUND": "O=c1ccc2ccc(O)c(O)c2o1 [NCGC00015349-05]", "MEASURE_NAME": "Curve Class", "EXPERIMENTAL_RESULT": -2.4}
{"COMPOUND": "C=C1C(=O)O[C@H]2[C@H]1[C@@H](OC(=O)C(C)CO)C[C@@]1(C)[C@H](O)CCC(=O)[C@H]21 (stereo partly drawn) [NCGC00169369-02]", "MEASURE_NAME": "Curve Class", "EXPERIMENTAL_RESULT": -1.4}
{"COMPOUND": "O=C1Cc2c([nH]c3ccc(Br)cc23)-c2ccccc2N1 [NCGC00015582-06]", "MEASURE_NAME": "Curve Class", "EXPERIMENTAL_RESULT": -1.4}
{"COMPOUND": "CC(NC(=O)CC(=O)O)c1nc2ccccc2c(=O)[nH]1 (stereo not drawn) [NCGC00385407-01]", "MEASURE_NAME": "Curve Class", "EXPERIMENTAL_RESULT": -2.1}
{"COMPOUND": "CCN1CCc2nc(N)oc2CC1.Cl [NCGC00015131-04]", "MEASURE_NAME": "Curve Class", "EXPERIMENTAL_RESULT": -2.4}
